system.under.test: Estrogen receptor beta (Homo sapiens) (UniProt Q92731)
Sequence (Q92731 whole entry, looked up): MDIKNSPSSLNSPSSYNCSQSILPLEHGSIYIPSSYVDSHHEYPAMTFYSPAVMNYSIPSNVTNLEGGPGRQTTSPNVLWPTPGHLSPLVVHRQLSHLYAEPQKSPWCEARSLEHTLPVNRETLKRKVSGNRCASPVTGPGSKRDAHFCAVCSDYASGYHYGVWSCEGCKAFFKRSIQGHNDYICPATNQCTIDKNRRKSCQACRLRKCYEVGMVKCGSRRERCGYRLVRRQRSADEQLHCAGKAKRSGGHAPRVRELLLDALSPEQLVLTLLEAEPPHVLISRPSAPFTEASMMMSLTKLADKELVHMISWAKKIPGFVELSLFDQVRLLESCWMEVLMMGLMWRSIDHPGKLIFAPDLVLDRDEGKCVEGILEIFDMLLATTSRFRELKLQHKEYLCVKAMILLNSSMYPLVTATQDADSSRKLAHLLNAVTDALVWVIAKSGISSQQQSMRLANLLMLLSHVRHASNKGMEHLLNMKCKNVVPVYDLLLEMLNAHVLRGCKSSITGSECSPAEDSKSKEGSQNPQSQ
method.summary: displacement of fluorescent estrogen from ERbeta – cell-based, Cos7 ERbeta-GFP, flow cytometry, primary screen (AID 1210);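 note: 0% = DMSO vehicle wells and 100% = complete loss of labeled estradiol signal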
experimental.conditions: fluorescent estrogen binding, ligand binding inhibition, at 0.1 µM, stronger effect = higher value

{"compound": "O=C(Nc1cnn(C23CC4CC(CC(C4)C2)C3)c1)c1cnn2c(C(F)(F)F)cc(-c3ccco3)nc12", "result.units": "%", "inhibition": 20}
{"compound": "CCn1nnc(NC(=O)CSc2ccc(Cl)cc2)n1", "result.units": "%", "inhibition": 68}
{"compound": "Cc1cc(C)nc(NC(=O)CSc2nn(C)c(=S)s2)n1", "result.units": "%", "inhibition": 20}
{"compound": "Cc1cnc(C(=O)OCC(=O)c2csc(N3CCCCC3)n2)cn1", "result.units": "%", "inhibition": 23}
{"compound": "COc1ccc(OC)c(C(=O)CSc2nnc(-c3ccc(OC)c(OC)c3)o2)c1", "result.units": "%", "inhibition": 12}
{"compound": "COc1ccc2cc3c(N)nn(C(=O)Cc4ccc(Cl)cc4)c3nc2c1", "result.units": "%", "inhibition": 12}
{"compound": "O=C(Cn1c(=O)n(Cc2ccco2)c(=O)c2c3c(sc21)CCCCC3)Nc1ccccc1", "result.units": "%", "inhibition": 39}
{"compound": "C/C(N)=C(/C#N)C(=O)CSc1nnc(-c2ccc(OC(F)F)cc2)o1", "result.units": "%", "inhibition": 23}
{"compound": "CN(C)CC(=O)N1c2ccccc2CCc2ccc(NC(=O)c3ccc(N)cc3)cc21", "result.units": "%", "inhibition": 62}
{"compound": "CN(C)C(=O)c1ccc2c(c1)C1C3CCC(C3)C1C(c1ccccc1)N2 (stereo not given)", "result.units": "%", "inhibition": 51}
{"compound": "CCOC(=O)C1=c2/c(=C/c3ccccc3OC)c(N)c(C#N)n2C(=O)C(c2ccccc2OC)S1 (stereo not given)", "result.units": "%", "inhibition": 46}
{"compound": "COc1ccc(C2CC(=O)Nc3ccccc3S2(=O)=O)cc1OC (stereo not given)", "result.units": "%", "inhibition": 20}
{"compound": "O=C(Nc1cccc2cccc(NC(=O)c3ccco3)c12)c1ccco1", "result.units": "%", "inhibition": 22}
{"compound": "Cc1c(C(=O)OCc2ccccc2)[nH]c2c1C(=O)CC(c1ccco1)C2 (stereo not given)", "result.units": "%", "inhibition": 17}
{"compound": "Oc1ccc(C2=Nn3c(nnc3-c3ccco3)SC2)cc1O", "result.units": "%", "inhibition": 1}
{"compound": "COc1ccccc1/C=c1\\sc2nc(-c3ccco3)nn2c1=O", "result.units": "%", "inhibition": 21}
{"compound": "O=C1c2ccccc2C(=O)N1/N=C/c1ccc(O)c(O)c1", "result.units": "%", "inhibition": 54}
{"compound": "CC(=O)c1sc2nc(SCC(=O)N3CCCCC3)[nH]c(=O)c2c1C", "result.units": "%", "inhibition": 12}
{"compound": "COc1ccc(C2Nc3ccccc3C(=O)N2c2ccc(C)cc2)cc1Cn1cc([N+](=O)[O-])cn1 (stereo not given)", "result.units": "%", "inhibition": 2}
{"compound": "O=C(c1cccs1)N1N=C(c2ccc(O)cc2)CC1c1ccccc1 (stereo not given)", "result.units": "%", "inhibition": 23}
